- MEASUREMENT TARGET: EGFR L858R/T790M/C797S (BaF3-LTC cells) (Homo sapiens, UniProt P00533, C797S/L858R/T790M)
- Construct: expressed in transfected cells; host or cells: BaF3
- Sequence (P00533 25-1210 T790M/C797S/L858R): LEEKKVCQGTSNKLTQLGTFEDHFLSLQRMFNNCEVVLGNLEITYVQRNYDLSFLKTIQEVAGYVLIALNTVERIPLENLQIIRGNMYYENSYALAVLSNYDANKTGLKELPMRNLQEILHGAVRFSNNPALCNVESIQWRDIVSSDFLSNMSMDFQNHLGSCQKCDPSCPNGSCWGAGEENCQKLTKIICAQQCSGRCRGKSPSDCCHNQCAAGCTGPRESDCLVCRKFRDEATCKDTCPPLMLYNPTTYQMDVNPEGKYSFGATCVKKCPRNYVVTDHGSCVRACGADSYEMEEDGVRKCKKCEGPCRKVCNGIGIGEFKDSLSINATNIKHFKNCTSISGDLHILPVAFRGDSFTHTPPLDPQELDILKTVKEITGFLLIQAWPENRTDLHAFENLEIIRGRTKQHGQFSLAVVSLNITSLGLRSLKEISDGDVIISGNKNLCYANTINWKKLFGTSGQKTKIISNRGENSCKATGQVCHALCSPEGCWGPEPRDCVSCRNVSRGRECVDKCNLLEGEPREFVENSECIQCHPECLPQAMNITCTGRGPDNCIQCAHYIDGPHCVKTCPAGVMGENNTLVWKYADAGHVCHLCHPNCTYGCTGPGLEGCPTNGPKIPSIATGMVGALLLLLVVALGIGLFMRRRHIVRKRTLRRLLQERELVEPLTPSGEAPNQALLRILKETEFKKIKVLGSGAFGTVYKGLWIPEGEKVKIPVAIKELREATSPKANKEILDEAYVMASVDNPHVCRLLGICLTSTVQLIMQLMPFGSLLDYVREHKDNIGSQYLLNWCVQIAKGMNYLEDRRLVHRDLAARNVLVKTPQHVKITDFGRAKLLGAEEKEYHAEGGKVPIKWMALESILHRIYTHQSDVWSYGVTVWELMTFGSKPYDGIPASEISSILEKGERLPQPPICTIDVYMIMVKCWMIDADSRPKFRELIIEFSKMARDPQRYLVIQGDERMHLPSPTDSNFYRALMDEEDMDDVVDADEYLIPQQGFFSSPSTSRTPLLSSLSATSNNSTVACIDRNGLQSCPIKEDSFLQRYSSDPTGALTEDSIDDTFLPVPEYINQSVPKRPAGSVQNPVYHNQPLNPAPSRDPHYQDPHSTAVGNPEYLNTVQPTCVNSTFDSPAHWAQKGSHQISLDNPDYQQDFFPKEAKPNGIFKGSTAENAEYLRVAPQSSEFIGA
- ASSAY DETAILS: EGFR degradation HTRF assay, BaF3-LTC cells
- Format: cell-based
- PARTICULARS: BaF3-LTC cells; maximum percentage of inhibition (degradation); read-out: Dmax (%) BaF3-LTC
READOUT TYPE: Dmax (%)

{"COMPOUND": "CCOc1cc(N2CCC(N3CCN(CCc4c(C)c(F)cc5c4oc(=O)n5C4CCC(=O)NC4=O)CC3)CC2)c(CC)cc1Nc1ncc(Br)c(Nc2cc(F)c3nc(CC)ccc3c2P(C)(C)=O)n1 (centres unmarked)", "MEASUREMENT TARGET": "EGFR L858R/T790M/C797S (BaF3-LTC cells) (Homo sapiens, UniProt P00533, C797S/L858R/T790M)", "UNIT NAME": "%", "Dmax": 82.6}
{"COMPOUND": "CCOc1cc(N2CCC(N3CCN(CCc4c(F)ccc5c4oc(=O)n5C4CCC(=O)NC4=O)CC3)CC2)c(CC)cc1Nc1ncc(Br)c(Nc2cc(F)c3nc(CC)ccc3c2P(C)(C)=O)n1 (centres unmarked)", "MEASUREMENT TARGET": "EGFR L858R/T790M/C797S (BaF3-LTC cells) (Homo sapiens, UniProt P00533, C797S/L858R/T790M)", "UNIT NAME": "%", "Dmax": 82}
{"COMPOUND": "CCOc1cc(N2CCC(N3CCN(CCc4cc5oc(=O)n(C6CCC(=O)NC6=O)c5cc4C)CC3)CC2)c(CC)cc1Nc1ncc(Br)c(Nc2ccc3nc(CC)ccc3c2P(C)(C)=O)n1 (centres unmarked)", "MEASUREMENT TARGET": "EGFR L858R/T790M/C797S (BaF3-LTC cells) (Homo sapiens, UniProt P00533, C797S/L858R/T790M)", "UNIT NAME": "%", "Dmax": 84.5}
{"COMPOUND": "CCOc1cc(N2CCC(N3CCN(CCC4CCN(c5cc(F)cc6c5oc(=O)n6C5CCC(=O)NC5=O)CC4)CC3)CC2)c(CC)cc1Nc1ncc(Br)c(Nc2ccc3nc(CC)ccc3c2P(C)(C)=O)n1 (centres unmarked)", "MEASUREMENT TARGET": "EGFR L858R/T790M/C797S (BaF3-LTC cells) (Homo sapiens, UniProt P00533, C797S/L858R/T790M)", "UNIT NAME": "%", "Dmax": 92.2}
{"COMPOUND": "CCc1ccc2c(P(C)(C)=O)c(Nc3nc(Nc4cc(CC)c(N5CCC(N6CCN(CCc7cc(F)c([C@H]8CCC(=O)NC8=O)c(F)c7)CC6)CC5)cc4OC4CC4)ncc3Br)ccc2n1", "MEASUREMENT TARGET": "EGFR L858R/T790M/C797S (BaF3-LTC cells) (Homo sapiens, UniProt P00533, C797S/L858R/T790M)", "UNIT NAME": "%", "Dmax": 89.3}

====

- MEASUREMENT TARGET: EGFR (HCC827 cells) (Homo sapiens, UniProt P00533, DEL746-750)
- Construct: endogenous in cells; host or cells: HCC827
- Sequence (P00533 with tags, fused parts or gaps DEL746-750): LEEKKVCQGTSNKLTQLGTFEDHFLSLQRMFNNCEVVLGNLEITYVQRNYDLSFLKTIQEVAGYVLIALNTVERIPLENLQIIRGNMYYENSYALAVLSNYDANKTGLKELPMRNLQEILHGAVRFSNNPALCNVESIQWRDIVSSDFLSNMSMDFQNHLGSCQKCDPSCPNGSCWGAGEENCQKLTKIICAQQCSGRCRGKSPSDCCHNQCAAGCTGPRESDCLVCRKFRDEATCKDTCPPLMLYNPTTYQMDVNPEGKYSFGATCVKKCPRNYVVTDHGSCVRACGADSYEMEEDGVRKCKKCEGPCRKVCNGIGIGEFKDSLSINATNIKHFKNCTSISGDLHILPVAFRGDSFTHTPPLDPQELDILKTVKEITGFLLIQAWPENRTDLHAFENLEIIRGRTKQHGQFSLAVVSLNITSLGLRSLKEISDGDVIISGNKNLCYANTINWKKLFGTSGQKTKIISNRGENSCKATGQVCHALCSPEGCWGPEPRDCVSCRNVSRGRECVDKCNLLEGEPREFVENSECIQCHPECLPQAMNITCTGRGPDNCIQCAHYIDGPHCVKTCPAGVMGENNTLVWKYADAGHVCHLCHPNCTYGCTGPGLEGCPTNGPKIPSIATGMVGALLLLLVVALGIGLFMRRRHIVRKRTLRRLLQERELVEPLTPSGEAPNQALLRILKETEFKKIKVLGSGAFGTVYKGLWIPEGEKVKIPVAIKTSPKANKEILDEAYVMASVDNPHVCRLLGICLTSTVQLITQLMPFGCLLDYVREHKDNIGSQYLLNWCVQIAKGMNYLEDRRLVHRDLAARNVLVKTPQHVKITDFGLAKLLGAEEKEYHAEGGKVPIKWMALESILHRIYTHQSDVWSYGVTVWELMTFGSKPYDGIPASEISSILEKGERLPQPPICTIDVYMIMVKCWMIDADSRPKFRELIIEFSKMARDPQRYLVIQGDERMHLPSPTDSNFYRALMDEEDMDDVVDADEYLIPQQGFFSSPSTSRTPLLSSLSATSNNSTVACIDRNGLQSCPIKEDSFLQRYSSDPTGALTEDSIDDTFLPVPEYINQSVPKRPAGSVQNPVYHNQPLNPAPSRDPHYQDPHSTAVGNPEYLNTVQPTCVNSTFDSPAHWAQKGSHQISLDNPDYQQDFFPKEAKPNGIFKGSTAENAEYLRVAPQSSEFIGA
- ASSAY DETAILS: EGFR degradation HTRF assay, HCC827 cells
- Format: cell-based
- PARTICULARS: HCC827, 16h treatment, maximum percentage of degradation
READOUT TYPE: Dmax (%)

Reference set, count: 5
{"COMPOUND": "COc1cc(N2CCC(NCCCCCCCc3ccc(C4CCC(=O)NC4=O)cc3)CC2)ccc1Nc1ncc(Cl)c(Nc2ccccc2N(C)S(C)(=O)=O)n1 (stereo not drawn)", "UNIT NAME": "%", "READOUT NUMBER": 80}
{"COMPOUND": "CCc1cc(Nc2ncc(Br)c(Nc3ccc4nccnc4c3P(C)(C)=O)n2)c(OC)cc1N1CCC(N2CCN(C(=O)CCC3CN(c4ccc5c(c4)C(=O)N(C4CCC(=O)NC4=O)C5=O)C3)CC2)CC1 (stereo not drawn)", "UNIT NAME": "%", "READOUT NUMBER": 76.1}
{"COMPOUND": "CCc1cc(Nc2ncc(Br)c(Nc3ccc4nccnc4c3P(C)(C)=O)n2)c(OC)cc1N1CCC(N2CCN(CCCN3CCN(c4ccc5c(c4)C(=O)N(C4CCC(=O)NC4=O)C5=O)CC3)CC2)CC1 (stereo not drawn)", "UNIT NAME": "%", "READOUT NUMBER": 86.8}
{"COMPOUND": "CCc1cc(Nc2ncc(Br)c(Nc3ccc4nccnc4c3P(C)(C)=O)n2)c(OC)cc1N1CCC(N2CCN(C(=O)[C@H]3C[C@H](N(C)c4ccc(C5CCC(=O)NC5=O)cc4)C3)CC2)CC1 (stereo partly drawn)", "UNIT NAME": "%", "READOUT NUMBER": 67}
{"COMPOUND": "COc1cc(N2CCC(N(C)CCCOc3ccc(N4CCC(=O)NC4=O)cc3)CC2)c(C)cc1Nc1ncc(Br)c(Nc2ccc3nccnc3c2P(C)(C)=O)n1", "UNIT NAME": "%", "READOUT NUMBER": 75}

A. COc1cc(N2CCN(CC3CCN(c4ccc(C5CCC(=O)NC5=O)cc4)CC3)CC2)ccc1Nc1ncc(Br)c(Nc2ccc3nccnc3c2P(C)(C)=O)n1 (stereo not drawn)
B. COc1cc(N2CCN(CCC3CCN(c4ccc(N5CCC(=O)NC5=O)cc4)CC3)CC2)c(C)cc1Nc1ncc(Br)c(Nc2ccc3nccnc3c2P(C)(C)=O)n1
Enquiry: Thinking about recorded Dmax values, which is higher, A or B ? Refer to your chosen entry by its label in the reply.
Return: A
(A: 91.8%, B: 58.5%)
